Value source: PubChem BioAssay AID2763

# Measurement Notes: Concentration response confirmation VP16 counterscreen for inhibitors of ROR gamma transcriptional activity; also: nearly all actives have a fitted effect of over 70% in size
# Test Context: Drosophila S2 Gal4-VP16 UAS-luciferase, luminescence, 20 h; series mostly up to 46.1 µM
Records with an inconclusive call do not appear. The source made the active and inactive calls. Calls follow the shape of the dose curve; as a rule, active = well fitted inhibition curve with a large enough effect; inconclusive = small, poorly fitted or top-dose-only effect, or effect the other way; inactive = no such curve, though single readings can be large or run the other way.
Outcome codes: active, inactive

1. O=C(/C=C/c1c(F)cccc1Cl)N1CCc2ccccc2C1    inactive
2. COc1cccc(-c2cc(C(=O)N3CCc4ccccc4C3)[nH]n2)c1    inactive
3. CCN1C(=O)/C(=C/c2ccc(N3CCCC3)cc2)NC1=S    active
4. C=CCNc1nc(Nc2ccc([N+](=O)[O-])cc2)nc(N2CCCC2)n1    active
5. CCOC(=O)Cc1nnc(Nc2ccc(C(=O)NC)cc2)c2ccccc12    inactive
6. CC(=O)c1cnc2nc(C(F)(F)F)nn2c1C    inactive
7. O=C(CSc1ccccc1C(=O)N1CCCCC1)NCC1CCCCC1    inactive
8. O=[N+]([O-])c1cc2c(cc1/C=N/Nc1nc(Nc3ccccc3)nc(N3CCCCC3)n1)OCO2    inactive
9. Cc1cccc(-c2nc3cc(NC(=O)C4CCCO4)ccc3o2)c1 (stereo not drawn)    active
10. Cc1oc(-c2ccccc2Cl)nc1CSCC(=O)O    active
11. O=C(CSc1n[nH]c(=O)n1-c1ccc2c(c1)OCCO2)Nc1ccccc1    inactive
12. CN1CCN(CCC(=O)Nc2cccc(F)c2)CC1    inactive
13. CCNC(=O)CCc1nc(-c2ccc(C(C)(C)C)cc2)no1    active
14. COC(=O)Cn1c(CN2CCc3ccccc3C2)nc2c1c(=O)n(C)c(=O)n2C    active
15. O=C(CCCOc1ccccc1)Nc1nc2ccccc2[nH]1    inactive
16. CCN1CCN(CCC(=O)Nc2ccccc2)CC1    inactive
17. CC(C)CC(=O)NS(=O)(=O)c1ccc(N)cc1    inactive
18. CCOc1ccc(C(=O)Nc2nc3ccccc3[nH]2)cc1OCC    active
